Test system: crabgrass (Digitaria spp.)
Experiment: Test A preemergence, soil drench
Format: in vivo
Details: Rate 500 g/ha, approx. eleven days
// reported Plant response rating (visual injury vs untreated controls) for each item listed
Response field accepts a number only; no unit should be typed.

- molecule: "CC(C)(C)c1ccn(C2OCN(c3cccc(C(F)(F)F)c3)C2=O)n1 (stereo not shown)"
  obs_value: 90
- molecule: "CC(C)c1ccn(C2OCN(c3cccc(C(F)(F)F)c3)C2=O)n1 (stereo not shown)"
  obs_value: 100
- molecule: "CC(C)(C)c1ccn(C2CCN(c3cccc(I)c3)C2=O)n1 (stereo not shown)"
  obs_value: 80

Find the measured Plant response rating (visual injury vs untreated controls): item CC(C)(C)c1ccn(C2SCN(c3cccc(C(F)(F)F)c3)C2=O)n1 (stereo not shown) , target or system crabgrass (Digitaria spp.).
90

----------
Test system: soybean (Glycine max)
Assay: Test C postemergence
Type: in vivo
Conditions: Rate 500 g/ha, scale 0 to 100 (0 no effect, 100 complete control)
parameter_measured: Plant response rating, Soybean
Response field accepts a number only; no unit should be typed.

- compound: "CCC(CC)c1ccn(C2OCN(c3cccc(OC(F)F)c3)C2=O)n1 (stereo not drawn)"
  Plant response rating, Soybean: 50

Find the measured Plant response rating, Soybean: item COc1cc(N2CCC(n3ccc(C(C)(C)C)n3)C2=O)ccc1Cl (stereo not drawn) , target or system soybean (Glycine max).
90

Find the measured Plant response rating, Soybean: item COc1cc(N2CCC(n3ccc(C(C)C)n3)C2=O)ccc1Br (stereo not drawn) , target or system soybean (Glycine max).
90

Find the measured Plant response rating, Soybean: item CCCC(C)c1ccn(C2OCN(c3cccc(OC(F)(F)F)c3)C2=O)n1 (stereo not drawn) , target or system soybean (Glycine max).
0

Find the measured Plant response rating, Soybean: item CCC(C)c1ccn(C2CCN(c3ccc(Cl)c(OC)c3)C2=O)n1 (stereo not drawn) , target or system soybean (Glycine max).
90

Find the measured Plant response rating, Soybean: item CCC(C)c1ccn(C2CCN(c3ccc(Br)c(OC)c3)C2=O)n1 (stereo not drawn) , target or system soybean (Glycine max).
90

----------
Tested on: Surinam grass (Brachiaria decumbens)
Experiment: Test C preemergence
Format: in vivo
Conditions: preemergence; Rate 125 g/ha; scale 0 to 100, 0 no effect, 100 complete control
// reported Plant response rating, Surinam grass for each item listed
Response field accepts a number only; no unit should be typed.

Illustrative cases are given below, each with its answer.
- compound: "O=C1C(n2ccc(C3CCC3)n2)SCN1c1cccc(OC(F)(F)F)c1 (stereo not drawn)"
  assay_target: "Surinam grass (Brachiaria decumbens)"
  Plant response rating, Surinam grass: 0
- compound: "CC1(c2ccn(C3SCN(c4cccc(OC(F)(F)F)c4)C3=O)n2)CC1 (stereo not drawn)"
  assay_target: "Surinam grass (Brachiaria decumbens)"
  Plant response rating, Surinam grass: 20
- compound: "CCC(C)c1ccn(C2SCN(c3cccc(C(F)(F)F)c3)C2=O)n1 (stereo not drawn)"
  assay_target: "Surinam grass (Brachiaria decumbens)"
  Plant response rating, Surinam grass: 0
- compound: "CC(C)(C)c1ccn(C2SCN(c3cccc(OC(F)(F)F)c3)C2=O)n1 (stereo not drawn)"
  assay_target: "Surinam grass (Brachiaria decumbens)"
  Plant response rating, Surinam grass: 40
- compound: "CC(C)(C)c1ccn(C2CCN(c3cccc(Cl)c3)C2=O)n1 (stereo not drawn)"
  assay_target: "Surinam grass (Brachiaria decumbens)"
  Plant response rating, Surinam grass: 0
- compound: "O=C1C(n2ccc(C3CCCCC3)n2)SCN1c1cccc(C(F)(F)F)c1 (stereo not drawn)"
  assay_target: "Surinam grass (Brachiaria decumbens)"
  Plant response rating, Surinam grass: 20
- compound: "CCC(C)c1ccn(C2SCN(c3cccc(OC(F)(F)F)c3)C2=O)n1 (stereo not drawn)"
  assay_target: "Surinam grass (Brachiaria decumbens)"
  Plant response rating, Surinam grass: 80
- compound: "CC(C)(C)c1ccn(C2SCN(c3cccc(OC(F)F)c3)C2=O)n1 (stereo not drawn)"
  assay_target: "Surinam grass (Brachiaria decumbens)"
  Plant response rating, Surinam grass: 70

Using the record for CC1(c2ccn(C3OCN(c4cccc(C(F)(F)F)c4)C3=O)n2)CC1 (stereo not drawn) , report its Plant response rating, Surinam grass.
30

----------
Tested on: goosegrass (Eleusine indica)
Assay: Test C postemergence
Assay type: in vivo
Settings: Rate 125 g/ha, scale 0 to 100, 0 no effect, 100 complete control
parameter_measured: Plant response rating, Goosegrass
Response field accepts a number only; no unit should be typed.

- compound: "CCCC(C)c1ccn(C2OCN(c3cccc(OC(F)(F)F)c3)C2=O)n1 (centres unmarked)"
  assay_target: "goosegrass (Eleusine indica)"
  obs_value: 20

Using the record for CCC(CC)c1ccn(C2SCN(c3cccc(C(F)(F)F)c3)C2=O)n1 (centres unmarked) , report its Plant response rating, Goosegrass.
0

Using the record for CCC(C)c1ccn(C2SCN(c3cccc(C(F)(F)F)c3)C2=O)n1 (centres unmarked) , report its Plant response rating, Goosegrass.
20

Using the record for CC(C)(C)c1ccn(C2SCN(c3cccc(OC(F)(F)F)c3)C2=O)n1 (centres unmarked) , report its Plant response rating, Goosegrass.
0

Using the record for O=C1C(n2ccc(C3CCC3)n2)SCN1c1cccc(C(F)(F)F)c1 (centres unmarked) , report its Plant response rating, Goosegrass.
0

----------
Tested on: lambsquarters (Chenopodium album)
Experiment: Test B preemergence
Assay type: in vivo
Details: preemergence; Rate 125 g/ha; scale of 0 to 100 where 0 is no effect and 100 is complete control; 13 to 15 days
parameter_measured: Plant response rating, Lambsquarters
Response field accepts a number only; no unit should be typed.

- molecule: "CC(C)(C)c1ccn(C2CCN(c3cccc(OC(F)(F)C(F)F)c3)C2=O)n1 (stereo not shown) [Compound 48]"
  obs_value: 100
- molecule: "CCC(C)c1ccn(C2CCN(c3ccc(F)c(C(F)(F)F)c3)C2=O)n1 (stereo not shown) [Compound 145]"
  obs_value: 100
- molecule: "CSc1cccc(N2CCC(n3ccc(C(C)(C)C)n3)C2=O)c1 (stereo not shown) [Compound 86]"
  obs_value: 100
- molecule: "CCCC(C)c1ccn(C2SCN(c3cccc(C(F)(F)F)c3)C2=O)n1 (stereo not shown) [Compound 92]"
  obs_value: 100
- molecule: "CC(C)(C)c1ccn(C2CCN(c3cc(C(F)(F)F)cc(C(F)(F)F)c3)C2=O)n1 (stereo not shown) [Compound 54]"
  obs_value: 0

Find the measured Plant response rating, Lambsquarters: item CCC(CC)c1ccn(C2CCN(c3ccc(C)c(OC)c3)C2=O)n1 (stereo not shown) [Compound 81] , target or system lambsquarters (Chenopodium album).
100

----------
System: goosegrass (Eleusine indica)
Test: Test C preemergence
Type: in vivo
Settings: Rate 62 g/ha; scale 0 to 100, 0 no effect, 100 complete control
// reported Plant response rating, Goosegrass for each item listed
Response field accepts a number only; no unit should be typed.

- compound: "O=C1C(n2ccc(C3CCC3)n2)OCN1c1cccc(C(F)(F)F)c1 (centres unmarked)"
  assay_target: "goosegrass (Eleusine indica)"
  parameter_measured: "Plant response rating, Goosegrass"
  obs_value: 80

Using the record for O=C1C(n2ccc(C3CC3)n2)OCN1c1cccc(C(F)(F)F)c1 (centres unmarked) , report its Plant response rating, Goosegrass.
80

Using the record for CC(C)c1ccn(C2SCN(c3cccc(OC(F)(F)F)c3)C2=O)n1 (centres unmarked) , report its Plant response rating, Goosegrass.
100

Using the record for CCC(C)c1ccn(C2SCN(c3cccc(OC(F)(F)F)c3)C2=O)n1 (centres unmarked) , report its Plant response rating, Goosegrass.
100

Using the record for Cc1ccc(N2CCC(n3ccc(C(C)(C)C)n3)C2=O)cc1OC(F)F (centres unmarked) , report its Plant response rating, Goosegrass.
80

----------
Test system: barnyardgrass (Echinochloa crus-galli)
Test: Test B postemergence
Type: in vivo
Details: Rate 125 g/ha, scale 0 (no effect) to 100 (complete control), 13 to 15 days
parameter_measured: Plant response rating, Barnyardgrass
Response field accepts a number only; no unit should be typed.

- molecule: "CC(C)(C)c1ccn(C2SCN(c3cccc(OC(F)(F)F)c3)C2=O)n1 (centres unmarked)"
  Plant response rating, Barnyardgrass: 100
- molecule: "COc1cc(OC)cc(N2CCC(n3ccc(C(C)(C)C)n3)C2=O)c1 (centres unmarked)"
  Plant response rating, Barnyardgrass: 0
- molecule: "CC(C)(C)c1ccn(C2CCN(c3cccc(C#N)c3)C2=O)n1 (centres unmarked)"
  Plant response rating, Barnyardgrass: 0
- molecule: "CCC(C)c1ccn(C2OCN(c3cccc(OC(F)(F)F)c3)C2=O)n1 (centres unmarked)"
  Plant response rating, Barnyardgrass: 90

Now consider the entry below.
Using the record for CC1(c2ccn(C3SCN(c4cccc(OC(F)(F)F)c4)C3=O)n2)CC1 (centres unmarked) , report its Plant response rating, Barnyardgrass.
0

----------
System: barnyardgrass (Echinochloa crus-galli)
Assay: Test C flooded paddy test
Format: in vivo
Conditions: flooded paddy test, Rate 62 g/ha; scale 0 to 100 (0 no effect, 100 complete control)
# if measured Plant response rating, Barnyardgrass < 40: true  # else: false

- molecule: "CCCCC(C)c1ccn(C2OCN(c3cccc(C(F)(F)F)c3)C2=O)n1 (stereo not drawn) [Compound 98]"
  label: "true"
- molecule: "CCOc1cccc(N2CCC(n3ccc(C(C)CC)n3)C2=O)c1 (stereo not drawn) [Compound 126]"
  label: "true"
- molecule: "CC(C)(C)c1ccn(C2SCN(c3cccc(OC(F)(F)F)c3)C2=O)n1 (stereo not drawn) [Compound 30]"
  label: "false"
- molecule: "CCOc1cccc(N2CCC(n3ccc(C(CC)CC)n3)C2=O)c1 (stereo not drawn) [Compound 125]"
  label: "false"
- molecule: "CC(C)(C)c1ccn(C2CCN(c3cccc(S(C)(=O)=O)c3)C2=O)n1 (stereo not drawn) [Compound 102]"
  label: "true"

Hi there! Is Plant response rating, Barnyardgrass for CCCCC(C)c1ccn(C2SCN(c3cccc(C(F)(F)F)c3)C2=O)n1 (stereo not drawn) [Compound 103] below 40, do you know?
true

Hi there! Is Plant response rating, Barnyardgrass for Cc1ccc(N2CCC(n3ccc(C(C)(C)C)n3)C2=O)cc1OCCCl (stereo not drawn) [Compound 109] below 40, do you know?
true

Hi there! Is Plant response rating, Barnyardgrass for O=C1C(n2ccc(C3CC3)n2)SCN1c1cccc(C(F)(F)F)c1 (stereo not drawn) [Compound 26] below 40, do you know?
true

Hi there! Is Plant response rating, Barnyardgrass for O=C1C(n2ccc(C3CCC3)n2)SCN1c1cccc(OC(F)(F)F)c1 (stereo not drawn) [Compound 38] below 40, do you know?
false

Hi there! Is Plant response rating, Barnyardgrass for CC(C)Oc1ccn(C2CCN(c3cccc(C(F)(F)F)c3)C2=O)n1 (stereo not drawn) [Compound 59] below 40, do you know?
true
